# study.system: Plasma-derived (pd-) human Factor VIII (Homo sapiens, UniProt P00451)
# Construct: from tissue; host or cells: human blood plasma (FVIII concentrate)
# protocol: Binding of 125I-labeled pd-FVIII to peptide-coated Toyopearl resin (micro-beads assay)
# measurement.conditions: Table 2; peptides with C-terminal cysteine linker immobilized on Toyopearl AF-Epoxy-650M resin
Where no end group is shown, it is not given here.
Listing: % Binding Factor VIII of selected substances
outcome.measure: % Binding Factor VIII (%)

Ac-Y-H-S-W-E-Y-C (Ac-YHSWEYC) [S32] | 62
Ac-H-S-W-E-Y-C (Ac-HSWEYC) [S31] | 49
EYHSWEYC [reference compound] | 50
H-S-W-E-Y-C (HSWEYC) [S29] | 54

====

Collected % Binding Factor VIII values appear next to each entry.
# study.system: Plasma-derived (pd-) human Factor VIII (Homo sapiens, UniProt P00451)
# Construct: from tissue; host or cells: human blood plasma (FVIII concentrate)
# protocol: Binding of 125I-labeled pd-FVIII to peptide-coated Toyopearl resin (micro-beads assay)
# measurement.conditions: Table 3; hexapeptides with linker cysteine within the binding sequence
Where no end group is shown, it is not given here.
outcome.measure: % Binding Factor VIII

Y-C-T-W-E-Y (YCTWEY) [S10] | 80%
Y-C-A-W-D-Y (YCAWDY) [S16] | 72%
Ac-Y-C-S-W-E-Y (Ac-YCSWEY) [S9] | 82%
Y-C-V-W-D-Y (YCVWDY) [S18] | 72%
Y-C-T-W-D-Y (YCTWDY) [S12] | 74%
Y-C-S-W-D-Y (YCSWDY) [S11] | 80%
Y-C-S-W-E-Y (YCSWEY) [S7] | 64%

====

# study.system: ReFacto (Homo sapiens, UniProt P00451, DEL763-1656)
# Construct: purchased Wyeth-Ayerst Pharmacia and Upjohn; host or cells: CHO cells
# Sequence (P00451 with tags, fused parts or gaps DEL763-1656 limits assumed): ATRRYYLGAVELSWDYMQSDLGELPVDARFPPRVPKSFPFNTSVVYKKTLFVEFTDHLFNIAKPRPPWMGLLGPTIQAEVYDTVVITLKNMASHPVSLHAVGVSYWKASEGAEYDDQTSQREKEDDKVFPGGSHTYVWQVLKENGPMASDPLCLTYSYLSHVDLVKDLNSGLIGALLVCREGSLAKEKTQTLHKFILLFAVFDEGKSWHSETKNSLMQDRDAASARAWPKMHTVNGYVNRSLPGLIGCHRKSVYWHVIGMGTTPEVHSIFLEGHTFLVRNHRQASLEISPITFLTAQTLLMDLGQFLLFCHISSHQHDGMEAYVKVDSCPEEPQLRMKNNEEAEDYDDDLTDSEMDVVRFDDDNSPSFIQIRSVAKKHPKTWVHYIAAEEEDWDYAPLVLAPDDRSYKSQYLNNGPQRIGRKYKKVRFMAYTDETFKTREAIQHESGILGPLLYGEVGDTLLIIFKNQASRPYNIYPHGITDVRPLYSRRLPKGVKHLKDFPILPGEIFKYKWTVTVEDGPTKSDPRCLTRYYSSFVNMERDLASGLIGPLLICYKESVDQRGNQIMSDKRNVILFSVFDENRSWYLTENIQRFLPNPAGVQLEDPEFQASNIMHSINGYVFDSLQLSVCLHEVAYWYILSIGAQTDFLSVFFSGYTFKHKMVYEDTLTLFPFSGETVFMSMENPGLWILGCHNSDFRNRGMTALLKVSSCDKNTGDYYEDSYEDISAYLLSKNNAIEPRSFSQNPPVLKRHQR
# Sequence (P00451 1668-2351 limits assumed): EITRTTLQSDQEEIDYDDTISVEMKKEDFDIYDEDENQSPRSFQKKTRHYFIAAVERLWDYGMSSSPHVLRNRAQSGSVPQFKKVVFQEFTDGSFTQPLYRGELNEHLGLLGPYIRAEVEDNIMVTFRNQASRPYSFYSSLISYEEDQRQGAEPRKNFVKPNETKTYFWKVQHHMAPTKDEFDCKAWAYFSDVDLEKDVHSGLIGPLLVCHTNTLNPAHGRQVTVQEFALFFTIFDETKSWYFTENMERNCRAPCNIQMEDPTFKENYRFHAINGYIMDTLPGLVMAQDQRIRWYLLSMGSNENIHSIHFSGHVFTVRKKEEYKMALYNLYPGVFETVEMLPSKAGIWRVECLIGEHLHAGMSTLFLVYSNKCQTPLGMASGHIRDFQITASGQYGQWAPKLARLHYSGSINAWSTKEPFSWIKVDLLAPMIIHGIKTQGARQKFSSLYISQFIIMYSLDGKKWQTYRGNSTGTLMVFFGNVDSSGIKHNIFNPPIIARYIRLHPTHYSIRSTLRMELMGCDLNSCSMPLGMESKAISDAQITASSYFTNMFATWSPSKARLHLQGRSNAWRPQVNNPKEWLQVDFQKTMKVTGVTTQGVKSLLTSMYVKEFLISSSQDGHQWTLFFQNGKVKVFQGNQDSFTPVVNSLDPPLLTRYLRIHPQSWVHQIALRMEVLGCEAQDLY
# protocol: Binding of ReFacto to peptide-coated resin
# measurement.conditions: peptide immobilized on resin; Table 1
Where no end group is shown, it is not given here.
outcome.measure: % Binding ReFacto (%)

Y-H-S-W-D-Y-C (YHSWDYC) [S48] | 40.2
Y-H-T-W-E-Y-C (YHTWEYC) [S47] | 38.9
Y-H-T-W-D-Y-C (YHTWDYC) [S52] | 51.2
E-S-W-E-Y-C (ESWEYC) [S44] | 35.1
Ac-E-S-W-E-Y-C (Ac-ESWEYC) [S45] | 38.4

Data provenance is patent US20100099113A1.
